# Tested on: HEK293T
# TEST METHOD NOTES: median enrichment of reporter reads in eGFP-reduced (low/intermediate) vs eGFP-high sorted cells (eGFP-extension fusion abundance) (ratio); higher = stronger loss of eGFP-fusion protein abundance (more destabilising extension)
Class true: median enrichment at least 2. Class false: median enrichment below 2.

Study these solved cases before continuing.
{"columns": ["SUBSTANCE", "ASSAY SYSTEM", "GROUP"],
 "data": [
  ["KHGGFGS [AKAIN1]", "HEK293T", "false"],
  ["YKLLKRFICVLLTRFFLFVACFGN [SKIL]", "HEK293T", "true"],
  ["FPPPPSSGSPRSNVPPATFPLWPPAELICLSHRSWCLPLHRSLNAATLAGSRWKLVEGPCQVTAMLSLSRHGPGSFRHIQILH [S100A7A]", "HEK293T", "true"],
  ["YTLGKITYLSSCE [OR10G8]", "HEK293T", "true"],
  ["LLSITKVYSKIIF [HNMT]", "HEK293T", "true"]
]}

Is the recorded value of median enrichment equal to or greater than 2 for this substance? QLYHYSRSSSQHHLLATWDV [GCG]
true

Is the recorded value of median enrichment equal to or greater than 2 for this substance? SEITDTFFGIHILGLGGVAHACNPSPLGG [CTSL]
true

----------
# Test system: HEK293T
# TEST METHOD NOTES: median enrichment of reporter reads in eGFP-reduced (low/intermediate) vs eGFP-high sorted cells (eGFP-extension fusion abundance) (ratio); higher = stronger loss of eGFP-fusion protein abundance (more destabilising extension)
Class Yes: median enrichment at least 9. Class No: median enrichment below 9.

{"columns": ["SEQUENCE CONTENT", "GROUP"],
 "data": [
  ["QKCGKAFTKSSYCVQHLKFNTEQMQYKCNDSGRTFIILEGL [ZNF736]", "No"],
  ["WSLVTPIEI [OR52A5]", "No"],
  ["LFRCYSSLLKDDENAECLFKCF [GABRA4]", "Yes"],
  ["STRRPSPQKP [ERBB2]", "No"],
  ["KIFLELLAIVTECPPFQSQLKTSAP [HEY2]", "No"],
  ["GWGLQGRGLAPFSLSY [NR1H4]", "Yes"],
  ["WGWTPVPAGRSPDMWTCSFVPTVHAGLRLEPRGAGQFTGSCRTRCQPLRGGTADARGFAHPGPSVPRAK [ITPKA]", "No"],
  ["YVLCYNGVIVPKCPH [OR51F2]", "No"]
]}

Is the recorded value of median enrichment equal to or greater than 9 for this sequence? YVLIGLPAGCDSKA [CBX2]
Yes

Is the recorded value of median enrichment equal to or greater than 9 for this sequence? SPRSWILQCINKRSQAGFISETIN [SGCD]
Yes

Is the recorded value of median enrichment equal to or greater than 9 for this sequence? LLRPHVKPPCPSTLPIALQRSSSWMTQI [RESP18]
No

----------
# System: HEK293T;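 also: lentiviral eGFP-IRES-mCherry reporter pool sorted by FACS 96 h post-transduction, gated on mCherry-high cells, Illumina read counts normalized per million, median across four biological replicates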
# TEST METHOD NOTES: median enrichment of reporter reads in eGFP-reduced (low/intermediate) vs eGFP-high sorted cells (eGFP-extension fusion abundance) (ratio); higher = stronger loss of eGFP-fusion protein abundance (more destabilising extension)
Entry class follows median enrichment: lowest (below 1), middle (1 to below 8), highest (8 or more)

Study these solved cases before continuing.
{"columns": ["SUBSTANCE", "GROUP"],
 "data": [
  ["TTTTTT [Thr06]", "lowest"],
  ["RVSSPTRSLARPLALQLLFGGGIPHSFLGTHSHAHCRSINSNPHFRPKIMRPHLVSTFPRPCSKPNPFLPSGSQNLLSPTATT [RNF39]", "middle"],
  ["YRSRHLPQTWGGGPASSSTTLAPSLLTWVLAF [SCRIB]", "highest"],
  ["WGPGAFPRSSPSSI [RNASEK]", "lowest"],
  ["FFFFFFF [Phe07]", "middle"]
]}

Form: Item = SVS [PACSIN3] ; Class = ?
lowest

Form: Item = SEVIFL [CES5A] ; Class = ?
middle

Form: Item = SGLPLPSLLEIVNPAVCAGLIVSVL [FBXO25] ; Class = ?
middle
